Would you mind telling me the reported rA1/hA3 of each entry?
Assay system: human A3 receptors (Homo sapiens)
Construct: expressed in transfected cells; host or cells: HEK-293 cells (membranes)
Assay explanation: radioligand binding, displacement of specific [125I]AB-MECA binding at human A3 receptors expressed in HEK-293 cells
Run parameters: Table 5; ratio of Ki

Input line: Item under review: `COc1c2ccoc2cc2oc(C=Nc3ccccc3)cc(=O)c12` . Reported rA1/hA3?
Output line: > 20

Input line: Item under review: COc1c2ccoc2cc2oc(/C=C/c3ccccc3)cc(=O)c12 [Compound 19, 4-methyloxy-7-trans-styryl-visnagin] . Reported rA1/hA3?
Output line: 0.37

Input line: Item under review: `CCOc1c2ccoc2cc2oc(/C=C/C=Cc3ccccc3)cc(=O)c12` . Reported rA1/hA3?
Output line: > 4

Input line: Item under review: `COc1c2ccoc2cc2oc(C=O)cc(=O)c12` . Reported rA1/hA3?
Output line: > 2

###

Assay system: human A3 receptors (Homo sapiens)
Construct: expressed in transfected cells; host or cells: HEK-293 cells (membranes)
Sequence (P0DMS8 1-318): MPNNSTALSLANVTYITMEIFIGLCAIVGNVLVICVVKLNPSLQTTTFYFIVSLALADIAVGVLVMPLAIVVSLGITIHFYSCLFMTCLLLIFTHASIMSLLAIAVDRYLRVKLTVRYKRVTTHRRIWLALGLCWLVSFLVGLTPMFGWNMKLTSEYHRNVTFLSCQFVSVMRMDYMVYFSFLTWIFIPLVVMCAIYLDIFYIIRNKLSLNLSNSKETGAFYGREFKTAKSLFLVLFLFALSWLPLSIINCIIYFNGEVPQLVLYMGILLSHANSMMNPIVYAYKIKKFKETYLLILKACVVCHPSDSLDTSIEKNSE
Assay explanation: radioligand binding, displacement of specific [125I]AB-MECA binding at human A3 receptors expressed in HEK-293 cells
Run parameters: Table 15; [125I]AB-MECA, HEK membranes; read-out: Ki hA3
One threshold, 20 nM, splits the recorded Ki values: lower ones are Y, equal or higher ones are N.

Input line: Please state whether Ki is below 20 nM for CCC(=O)Nc1nc2ccc(Cl)cc2c2nc(-c3ccco3)nn12 [Compound 146]
Output line: Y

Input line: Please state whether Ki is below 20 nM for NCCCC(=O)Nc1nc2ccc(Cl)cc2c2nc(-c3ccco3)nn12 [Compound 155]
Output line: Y

Input line: Please state whether Ki is below 20 nM for O=C(Nc1nc2ccc(Cl)cc2c2nc(-c3ccco3)nn12)c1ccccc1 [Compound 151]
Output line: Y

Input line: Please state whether Ki is below 20 nM for CC(C)(C)C(=O)Nc1nc2ccc(Cl)cc2c2nc(-c3ccco3)nn12 [Compound 149]
Output line: N

Input line: Please state whether Ki is below 20 nM for Nc1nc2ccc(Cl)cc2c2nc(-c3ccc(Br)o3)nn12 [Compound 157]
Output line: N

Input line: Please state whether Ki is below 20 nM for O=c1[nH]c2ccc(Cl)cc2c2nc(-c3ccco3)nn12 [Compound 158]
Output line: N

Input line: Please state whether Ki is below 20 nM for O=C(Nc1nc2ccc(Cl)cc2c2nc(-c3ccc(Br)o3)nn12)c1ccccc1 [Compound 156]
Output line: N

Input line: Please state whether Ki is below 20 nM for CCCC(=O)Nc1nc2ccc(Cl)cc2c2nc(-c3ccco3)nn12 [Compound 147]
Output line: Y

Input line: Please state whether Ki is below 20 nM for CCCCC(=O)Nc1nc2ccc(Cl)cc2c2nc(-c3ccco3)nn12 [Compound 148]
Output line: N

Input line: Please state whether Ki is below 20 nM for CC(C)(C)OC(=O)NCCCC(=O)Nc1nc2ccc(Cl)cc2c2nc(-c3ccco3)nn12 [Compound 154]
Output line: N
